Origin of values: paper PMC12606622

tested_target: human AR (Homo sapiens)
Sequence (P10275 640-920): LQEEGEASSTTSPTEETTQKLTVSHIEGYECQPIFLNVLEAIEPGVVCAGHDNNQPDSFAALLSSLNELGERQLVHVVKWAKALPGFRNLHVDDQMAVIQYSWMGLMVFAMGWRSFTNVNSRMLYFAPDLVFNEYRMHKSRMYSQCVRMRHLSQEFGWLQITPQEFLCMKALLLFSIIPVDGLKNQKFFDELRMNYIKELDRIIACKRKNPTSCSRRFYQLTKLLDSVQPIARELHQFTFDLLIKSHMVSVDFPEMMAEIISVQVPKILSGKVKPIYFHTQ
test_settings: agonist mode, HEK293, 24 h, n = 4; 95% CI 2.3–4.7 nM; read-out: EC50 (induction of AR N–C interaction)
readout: EC50 (nM)

compound | readout | measured_result
C[C@]12CCC(=O)C[C@@H]1CC[C@H]1[C@@H]3CC[C@H](O)[C@@]3(C)CC(=O)[C@@H]12 [11-ketoDHT, 11-Ketodihydrotestosterone, reference compound] | EC50 | 3.3

----------
tested_target: human AR (Homo sapiens, UniProt P10275)
Format: cell-based
pIC50: −log10 of the molar value.
readout: pIC50

test_smiles | readout | measured_result
C[C@H]1CCCC(=O)CCC/C=C/c2cc(O)cc(O)c2C(=O)O1 | pIC50 | 5.43

----------
tested_target: human ERα (ESR1) (Homo sapiens)
assay_notes: ERα mammalian one-hybrid reporter gene assay in transiently transfected HEK293 cells
Format: cell-based
test_settings: fold change vs 0.1% DMSO; at conc. BPA 10, BPF 10, BPS 30, ZEA 0.1 μM
readout: E max [FC] (FC)

molecule | readout | measured_result
CC(C)(c1ccc(O)cc1)c1ccc(O)cc1 [Bisphenol A] | E max [FC] | 19.6
Oc1ccc(Cc2ccc(O)cc2)cc1 [Bisphenol F] | E max [FC] | 56.1
C[C@H]1CCCC(=O)CCC/C=C/c2cc(O)cc(O)c2C(=O)O1 [Zearalenone] | E max [FC] | 89.9
O=S(=O)(c1ccc(O)cc1)c1ccc(O)cc1 [Bisphenol S] | E max [FC] | 48.5

----------
tested_target: human AR (Homo sapiens, UniProt P10275)
Type: cell-based
test_settings: read-out: IC50 mean (inhibiting AR)
pIC50: −log10 of the molar value.
readout: pIC50

molecule | measured_result
CC(C)(c1ccc(O)cc1)c1ccc(O)cc1 [Bisphenol A] | 6.01

----------
Parameter: pEC50. Scope: all listed entries.
tested_target: human ERα (ESR1) (Homo sapiens, UniProt P03372)
Sequence (P03372 251-595): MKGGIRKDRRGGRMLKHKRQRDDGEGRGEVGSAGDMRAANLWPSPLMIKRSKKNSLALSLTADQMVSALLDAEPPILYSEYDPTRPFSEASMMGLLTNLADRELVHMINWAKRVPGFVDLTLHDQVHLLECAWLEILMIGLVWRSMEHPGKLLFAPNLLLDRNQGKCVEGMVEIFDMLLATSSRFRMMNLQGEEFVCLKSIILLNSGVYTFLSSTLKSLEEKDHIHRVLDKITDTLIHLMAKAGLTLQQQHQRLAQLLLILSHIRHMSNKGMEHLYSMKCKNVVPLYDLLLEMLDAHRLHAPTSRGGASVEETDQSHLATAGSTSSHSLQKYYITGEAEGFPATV
assay_notes: ERα mammalian one-hybrid reporter gene assay in transiently transfected HEK293 cells
Assay type: cell-based
test_settings: HEK293, 24 h treatment, four-parameter fit, n ≥ 3; read-out: EC50 mean (activating ERα)
pEC50: −log10 of the molar value.

molecule | pEC50
Oc1ccc(Cc2ccc(O)cc2)cc1 [Bisphenol F] | 5.68
O=S(=O)(c1ccc(O)cc1)c1ccc(O)cc1 [Bisphenol S] | 5.28
